# measurement target: human 4-1BB on CHO-K1 cells (human, UniProt Q07011 24-255)
# Sequence (Q07011 24-255): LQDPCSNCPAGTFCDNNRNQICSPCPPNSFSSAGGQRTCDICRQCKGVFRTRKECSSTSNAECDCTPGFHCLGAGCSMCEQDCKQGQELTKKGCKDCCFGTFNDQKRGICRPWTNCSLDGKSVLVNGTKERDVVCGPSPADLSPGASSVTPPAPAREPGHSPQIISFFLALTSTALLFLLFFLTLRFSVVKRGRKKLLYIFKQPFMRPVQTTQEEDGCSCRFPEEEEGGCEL
# protocol details: FACS
outcome measure: EC50 (nM)
// units = nM; emit number, no label

[[record]]
binder = "PR001842 (antibody, V domains shown) VH: EVQLLESGGGLVQPGGSLRLSCAASGFTFSSYAMSWGRQAPGKGLEWVSAISGSGGSTYYADSVKGRFTISRDNSKNTLYLHMNSLRAEDTAVYYCAKEKVATTGDYYYDMDVWGQGTTVTVSS"
meas_value = 0.537

[[record]]
binder = "PR001837 (antibody, V domains shown) VH: EVQLLESGGGLVQPGGSLRLSCEASGFTFSSYAMSWVRQAPEKGLEWVSSISGSGGSTFYADSVKGRFTISRDNSKNTLYLQMNSLRAEDTAVYYCAKEGTTETDDYHYNMDVWGQGTTVTVSS"
meas_value = 0.386

[[record]]
binder = "PR001840 (antibody, V domains shown) VH: EVQLVESGGGLVQPGGSLRLSCAASGFTFSSYWMHWVRQAPGKGLVWVSRINSDGSSTSYADSVQGRFTISRDNAKNTLYLQMNSLRAEDTAVYYCVRKGSSSYYHYSIEDDWGQGTLVTVSS"
meas_value = 0.37


# evaluate next
Name the recorded EC50 for PR001830 (antibody, V domains shown) VH: EVQLLESGGGLVQPGGSLRLSCTASGFTFSNYAMSWVRQAPEKGLEWVSSISGSGGSTFYADSVKGRFTISRDNSKNTLYLQMNSLRAEDTAVYFCAKEGSSETDDHYYNVDVWGQGTTVTVSS .
0.209
